FYI, the data here is from patent US20250281611A1.

# Assayed system: T1, nfP2X7 CAR 1
# T1 construct: Expressed on T cells with truncated EGFR as marker gene; also called anti-nfP2X7 receptor CAR 1; nfP2X7 targeted CAR on EGFR+ T cells
# Assay name: flow cytometry, CAR T cells, anti-His-FITC, EGFR+ over EGFR- cells
Kindly supply the reported HisTag MFI Ratio of EGFR+/EGFR- values for the records listed here.
Kindly provide the number alone.

Enquiry: Give a short answer stating reported HisTag MFI Ratio of EGFR+/EGFR- for CD33 BRIDGE variant B1 (Fab, V domains shown, Lintuzumab-based Fab bridging molecule) VH: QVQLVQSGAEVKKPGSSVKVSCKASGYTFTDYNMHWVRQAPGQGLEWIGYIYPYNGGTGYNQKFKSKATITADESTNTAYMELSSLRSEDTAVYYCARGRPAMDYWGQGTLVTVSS VL: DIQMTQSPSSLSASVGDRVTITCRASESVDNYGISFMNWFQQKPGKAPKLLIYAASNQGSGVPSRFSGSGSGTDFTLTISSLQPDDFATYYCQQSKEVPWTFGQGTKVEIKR .
Return: 2.5

Enquiry: Give a short answer stating reported HisTag MFI Ratio of EGFR+/EGFR- for CD33 BRIDGE variant B7 (Fab, V domains shown, Lintuzumab-based Fab bridging molecule) VH: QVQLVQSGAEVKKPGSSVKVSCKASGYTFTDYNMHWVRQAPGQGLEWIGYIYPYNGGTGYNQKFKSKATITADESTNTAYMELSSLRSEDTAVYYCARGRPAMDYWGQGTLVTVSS VL: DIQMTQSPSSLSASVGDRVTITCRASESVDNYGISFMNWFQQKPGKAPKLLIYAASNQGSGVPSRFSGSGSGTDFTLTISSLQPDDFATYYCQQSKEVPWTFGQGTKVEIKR .
Return: 3

Enquiry: Give a short answer stating reported HisTag MFI Ratio of EGFR+/EGFR- for CD33 BRIDGE variant B2 (Fab, V domains shown, Lintuzumab-based Fab bridging molecule) VH: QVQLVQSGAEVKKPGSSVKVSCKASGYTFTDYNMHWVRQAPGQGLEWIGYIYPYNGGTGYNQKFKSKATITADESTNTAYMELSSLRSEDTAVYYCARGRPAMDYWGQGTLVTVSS VL: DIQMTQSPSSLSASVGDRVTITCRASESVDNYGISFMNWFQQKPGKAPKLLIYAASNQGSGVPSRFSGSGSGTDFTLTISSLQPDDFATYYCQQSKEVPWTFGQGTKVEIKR .
Return: 2.5

Enquiry: Give a short answer stating reported HisTag MFI Ratio of EGFR+/EGFR- for CD33 BRIDGE variant B3 (Fab, V domains shown, Lintuzumab-based Fab bridging molecule) VH: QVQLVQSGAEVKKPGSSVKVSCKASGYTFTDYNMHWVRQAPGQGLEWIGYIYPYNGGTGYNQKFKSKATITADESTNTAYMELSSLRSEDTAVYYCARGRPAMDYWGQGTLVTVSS VL: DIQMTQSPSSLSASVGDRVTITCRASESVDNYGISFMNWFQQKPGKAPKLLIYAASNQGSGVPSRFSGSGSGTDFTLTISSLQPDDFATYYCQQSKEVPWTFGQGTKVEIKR .
Return: 2.4

Enquiry: Give a short answer stating reported HisTag MFI Ratio of EGFR+/EGFR- for CD33 BRIDGE variant B9 (Fab, V domains shown, Lintuzumab-based Fab bridging molecule) VH: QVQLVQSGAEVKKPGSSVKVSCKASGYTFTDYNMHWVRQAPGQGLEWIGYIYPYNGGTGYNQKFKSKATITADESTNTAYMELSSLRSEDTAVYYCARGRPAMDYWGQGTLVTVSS VL: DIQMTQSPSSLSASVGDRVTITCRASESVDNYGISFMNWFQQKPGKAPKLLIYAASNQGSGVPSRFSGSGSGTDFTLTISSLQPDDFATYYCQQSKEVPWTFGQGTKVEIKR .
Return: 2.8
